Test system: brain levels of L-5-hydroxytryptophan (L-5-HTP), serotonin (5-HT) and 5-hydroxyindoleacetic acid (5-HIAA)
test: Biochemical analysis of brain levels of L-5-HTP, 5-HT and 5-HIAA one hour after a single dose (technique of CURZON and GREEN)
Type: in vivo, rats
test-parameters: Rattus norvegicus, 1 h; brain level, adult rats, single dose 50 mg/kg, one hour after administration, percentage increase relative to control animals; read-out: %, relative to the controls, of 5-HT at dose of 50 mg/kg
Square brackets hold non-standard residues; d marks the D form. Peptide text beside a SMILES is read from it. Trp(5-OH) = N[C@@H](Cc1c[nH]c2ccc(O)cc12)C(=O)O
outcome-measure: change in vivo at 50 mg/kg (%)
All answers are understood in %, so give the number only.

# example entries with known answers
{"compound": "N[C@@H](Cc1c[nH]c2ccc(O)cc12)C(=O)N1CCC[C@H]1C(=O)O [Example 11, 5-HYDROXY-L-TRYPTOPHYL-L-PROLINE] (H-[Trp(5-OH)]-Pro-OH)", "unit-text": "%", "measured": 20}
{"compound": "N[C@@H](Cc1c[nH]c2ccc(O)cc12)C(=O)N[C@@H](CCC(=O)O)C(=O)O [Example 4, 5-Hydroxy-L-tryptophyl-L-glutamic acid] (H-[Trp(5-OH)]-Glu-OH)", "unit-text": "%", "measured": 60}
{"compound": "CC(C)C[C@H](NC(=O)[C@@H](N)Cc1c[nH]c2ccc(O)cc12)C(=O)O [Example 10, 5-HYDROXY-L-TRYPTOPHYL-L-LEUCINE] (H-[Trp(5-OH)]-Leu-OH)", "unit-text": "%", "measured": 45}
{"compound": "N=C(N)NCCC[C@H](NC(=O)[C@@H](N)Cc1c[nH]c2ccc(O)cc12)C(=O)O [Example 18, 5-Hydroxy-L-tryptophyl-L-arginine] (H-[Trp(5-OH)]-Arg-OH)", "unit-text": "%", "measured": 30}

Now look at this one.
Q: Tell me the measured change in vivo at 50 mg/kg of CCOC(=O)CC[C@H](NC(=O)[C@@H](N)Cc1c[nH]c2ccc(O)cc12)C(=O)OCC.Cl [Example 3, hydrochloride] (H-[Trp(5-OH)]-Glu(OEt)-OEt) , please.
A: 200
